Hey, just so you know, these numbers are from the RNAGym collection of RNA variant scans (doi:10.1038/s41586-018-0170-7).

B1: tRNA (parent)
chain: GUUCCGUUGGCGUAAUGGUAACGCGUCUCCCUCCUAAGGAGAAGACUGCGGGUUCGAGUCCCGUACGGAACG

Variants of: B1
Assay: yeast fitness, log relative to wild type (ln ratio); higher = fitter; tRNA-Arg(CCU), competitive growth, 37 C, 1 M NaCl
metric: yeast fitness (ln)
Just the number, please.

yeast fitness (ln) recorded for this variant, U2G A69G A70U , is -0.00206

yeast fitness (ln) recorded for this variant, G1A U2G C27U A43C C46U , is -0.038

yeast fitness (ln) recorded for this variant, U2C G6U A43C C66U , is -0.161

yeast fitness (ln) recorded for this variant, G1A U2G G6A C27U C46U C71U , is -0.182

yeast fitness (ln) recorded for this variant, U2G C27U A43C C66A A69G A70U C71U , is -0.477

yeast fitness (ln) recorded for this variant, U2C C27U C46U C66U A69G A70G C71U , is -0.281

yeast fitness (ln) recorded for this variant, C66U A69G A70G , is -0.0718
